# testedTarget: HEKn (EGFR WT) (Homo sapiens)
# Sequence (P00533 25-1210): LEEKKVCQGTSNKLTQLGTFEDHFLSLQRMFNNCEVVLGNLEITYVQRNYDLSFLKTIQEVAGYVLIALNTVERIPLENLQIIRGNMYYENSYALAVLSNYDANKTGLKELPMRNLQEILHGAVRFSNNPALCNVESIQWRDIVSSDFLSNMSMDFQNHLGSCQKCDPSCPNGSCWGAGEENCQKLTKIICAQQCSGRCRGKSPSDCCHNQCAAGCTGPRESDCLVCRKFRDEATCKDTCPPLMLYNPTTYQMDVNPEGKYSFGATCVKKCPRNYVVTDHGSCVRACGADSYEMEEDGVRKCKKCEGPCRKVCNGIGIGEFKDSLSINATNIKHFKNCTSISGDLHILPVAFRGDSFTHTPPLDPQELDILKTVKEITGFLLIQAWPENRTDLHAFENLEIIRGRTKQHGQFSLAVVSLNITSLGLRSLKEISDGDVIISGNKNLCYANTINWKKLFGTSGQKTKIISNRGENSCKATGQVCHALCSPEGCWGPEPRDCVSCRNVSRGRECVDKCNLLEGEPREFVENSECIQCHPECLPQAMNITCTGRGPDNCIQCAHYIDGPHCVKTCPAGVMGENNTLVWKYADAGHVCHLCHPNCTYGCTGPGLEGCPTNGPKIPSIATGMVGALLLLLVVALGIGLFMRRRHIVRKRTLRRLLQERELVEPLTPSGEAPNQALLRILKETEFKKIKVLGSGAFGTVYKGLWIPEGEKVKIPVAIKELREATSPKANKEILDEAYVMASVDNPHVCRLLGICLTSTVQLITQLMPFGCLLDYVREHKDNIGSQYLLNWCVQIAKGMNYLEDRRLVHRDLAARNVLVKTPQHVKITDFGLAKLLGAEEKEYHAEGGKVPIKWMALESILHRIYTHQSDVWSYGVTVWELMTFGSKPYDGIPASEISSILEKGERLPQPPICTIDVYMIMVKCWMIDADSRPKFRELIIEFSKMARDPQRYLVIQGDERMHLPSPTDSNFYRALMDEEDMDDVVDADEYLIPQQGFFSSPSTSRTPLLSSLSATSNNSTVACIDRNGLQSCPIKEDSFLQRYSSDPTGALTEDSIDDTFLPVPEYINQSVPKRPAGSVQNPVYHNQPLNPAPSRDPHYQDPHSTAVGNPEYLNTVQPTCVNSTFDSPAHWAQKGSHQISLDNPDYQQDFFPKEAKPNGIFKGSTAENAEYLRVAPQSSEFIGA
# experimentDescription: EGFR target modulation in HEKn (EGFR-WT) cell line (phospho-EGFR Y1173 ELISA)
# setupConditions: value outside parentheses
Readings of pIC50 for the listed molecules
The read-out pIC50 is expressed as -log10 of concentration in moles per litre.

{"molecule": "Cc1cccc2nc(NC(=O)c3cccc(C(F)(F)F)c3)n(C3CCCCN(C(=O)/C=C/CN(C)C)C3)c12 (centres unmarked)", "property": "pIC50", "assayValue": 6.60}

Q: Would you kindly share the measured pIC50 for C=CC(=O)N1CCCC[C@@H](n2c(NC(=O)c3ccnc(C)c3)nc3cc(CN4CC(F)C4)cc(C)c32)C1 ?
A: 6.95

Q: Now the same for Cc1cccc2nc(NC(=O)c3cc(F)c(F)c(F)c3)n(C3CCCCN(C(=O)/C=C/CN(C)C)C3)c12 (centres unmarked)
A: 6.59

Q: Same again, this time with Cc1cccc2nc(NC(=O)c3cncc(F)c3)n([C@@H]3CCCCN(C(=O)/C=C/CN(C)C)C3)c12
A: 7.15

Q: Also Cc1cccc2nc(NC(=O)c3ccccc3)n(C3CCCCN(C(=O)/C=C/CN(C)C)C3)c12 (centres unmarked) , if possible.
A: 6.12

Q: And then COc1cc(C(=O)Nc2nc3cccc(C)c3n2[C@@H]2CCCCN(C(=O)/C=C/CN(C)C)C2)ccn1 , what is it?
A: 6.87

Q: Then this molecule: Cc1cc(C(=O)Nc2nc3cccc(C)c3n2[C@@H]2CCCCN(C(=O)/C=C/CN(C)C)C2)cc(C)n1
A: 6.66

Q: Next up: C=CC(=O)N1CCCC[C@@H](n2c(NC(=O)c3ccnc(C)c3)nc3cc(CN4CC[C@@H](F)C4)cc(C)c32)C1
A: 7.11

Q: Then Cc1nccc(C(=O)Nc2nc3cccc(C)c3n2C2CCCCN(C(=O)/C=C/CN(C)C)C2)n1 (centres unmarked) ?
A: 5.31

Q: Let us now turn to C=CC(=O)N1CCC[C@@H](n2c(NC(=O)c3ccnc(C)c3)nc3cccc(C)c32)C1
A: 5.77

Q: What about C/C=C/C(=O)N1CCCC[C@@H](n2c(NC(=O)c3cc(C)nc(C)c3)nc3cc(CN4CC[C@H](OC)C4)cc(C)c32)C1 ?
A: 5.34

====

Listed next: entries and their corresponding IC50.
# testedTarget: human EGFR L858R (NIH/3T3 cells) (Homo sapiens, UniProt P00533, L858R)
# Sequence (P00533 25-1210 L858R): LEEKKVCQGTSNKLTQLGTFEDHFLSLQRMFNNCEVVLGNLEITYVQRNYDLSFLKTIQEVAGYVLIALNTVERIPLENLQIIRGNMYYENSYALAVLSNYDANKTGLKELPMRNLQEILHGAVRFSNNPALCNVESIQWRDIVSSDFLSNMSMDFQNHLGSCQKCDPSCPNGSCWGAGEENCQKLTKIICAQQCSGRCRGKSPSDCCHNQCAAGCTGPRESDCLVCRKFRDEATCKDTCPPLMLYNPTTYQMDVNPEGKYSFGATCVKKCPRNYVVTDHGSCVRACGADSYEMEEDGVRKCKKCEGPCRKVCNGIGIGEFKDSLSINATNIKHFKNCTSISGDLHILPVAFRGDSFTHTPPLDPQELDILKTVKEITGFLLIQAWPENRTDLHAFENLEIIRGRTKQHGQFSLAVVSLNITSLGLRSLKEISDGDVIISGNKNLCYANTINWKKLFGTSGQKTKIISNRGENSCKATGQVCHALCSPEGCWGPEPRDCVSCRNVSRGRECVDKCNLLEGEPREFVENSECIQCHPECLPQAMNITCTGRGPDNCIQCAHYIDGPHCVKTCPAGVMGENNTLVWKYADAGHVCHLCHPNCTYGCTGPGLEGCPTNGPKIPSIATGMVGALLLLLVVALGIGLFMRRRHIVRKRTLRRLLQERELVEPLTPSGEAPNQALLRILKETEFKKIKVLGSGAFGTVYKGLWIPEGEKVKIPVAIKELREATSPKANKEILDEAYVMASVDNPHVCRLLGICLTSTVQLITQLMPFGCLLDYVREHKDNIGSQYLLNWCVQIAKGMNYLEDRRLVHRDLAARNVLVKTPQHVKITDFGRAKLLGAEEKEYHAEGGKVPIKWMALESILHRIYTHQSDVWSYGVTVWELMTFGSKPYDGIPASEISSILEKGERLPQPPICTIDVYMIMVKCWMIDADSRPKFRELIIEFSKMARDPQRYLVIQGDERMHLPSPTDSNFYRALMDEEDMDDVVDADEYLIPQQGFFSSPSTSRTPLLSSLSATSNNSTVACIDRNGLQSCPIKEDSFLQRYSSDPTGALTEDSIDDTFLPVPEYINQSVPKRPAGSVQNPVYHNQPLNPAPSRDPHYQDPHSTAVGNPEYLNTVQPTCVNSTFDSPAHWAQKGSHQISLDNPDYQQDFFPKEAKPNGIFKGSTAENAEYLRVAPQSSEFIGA
# experimentDescription: EGFR target modulation in engineered NIH/3T3 cell lines (phospho-EGFR Y1068 AlphaLISA), EGFR L858R
# Type: cell-based
# setupConditions: engineered NIH/3T3 cells, read-out: NIH3T3 IC50 (μM) EGFR (L858R)

Field: example entries. Status: answers known.
{"molecule": "C=CC(=O)N1CCCC[C@@H](n2c(NC(=O)c3ccccc3)nc3cccc(COCCOC)c32)C1", "IC50": "0.094 µM"}
{"molecule": "Cc1ncccc1C(=O)Nc1nc2cccc(C)c2n1C1CCCCN(C(=O)/C=C/CN(C)C)C1 (stereo not drawn)", "IC50": "0.234 µM"}

Q: State the recorded IC50 for this entry: C=C(CN(CC)CC)C(=O)N1CCCC[C@@H](n2c(NC(=O)c3ccnnc3)nc3cccc(C)c32)C1
A: 0.043 µM

Q: Now consider Cc1cccc2nc(NC(=O)c3ccnc(N(C)C)c3)n(C3CCCCN(C(=O)/C=C/CN(C)C)C3)c12 (stereo not drawn) and answer again.
A: 0.005 µM

Q: Again, but for Cc1cccc2nc(NC(=O)c3cccnc3)n(C3CCCCN(C(=O)/C=C/CN(C)C)C3)c12 (stereo not drawn)
A: 0.004 µM

Q: What do you have for C=CC(=O)N1CCC[C@@H](n2c(NC(=O)c3ccccc3)nc3cccc(C)c32)C1 ?
A: 0.306 µM

Q: Also check Cc1cc(C(=O)Nc2nc3cccc(Cl)c3n2[C@@H]2CCCCN(C(=O)/C=C/CN3CC[C@@H](F)C3)C2)ccn1
A: 0.003 µM

Q: Quick one: C=CC(=O)N1CCC[C@@H](n2c(NC(=O)c3cccc(C(F)(F)F)c3)nc3cc(CN(C)C(C)=O)ccc32)C1
A: 0.051 µM

Q: Cc1cccc2nc(NC(=O)c3cccc(-n4cnnn4)c3)n(C3CCCCN(C(=O)/C=C/CN(C)C)C3)c12 (stereo not drawn) , same question.
A: 0.003 µM

Q: And then C=C(CN1CCCCC1)C(=O)N1CCCC[C@@H](n2c(NC(=O)c3ccnnc3)nc3cccc(C)c32)C1 , what is it?
A: 0.054 µM

Q: Item: Cc1cc(C(=O)Nc2nc3cccc(C)c3n2[C@@H]2CCCCN(C(=O)/C=C/CN(C)C)C2)cnn1
A: 0.007 µM

Q: Further, for Cc1cccc2nc(NC(=O)c3cn4ccsc4n3)n(C3CCCCN(C(=O)/C=C/CN(C)C)C3)c12 (stereo not drawn) ?
A: 0.47 µM

Q: How about Cc1cccc2nc(NC(=O)c3ccnnc3)n([C@@H]3CCCCN(C(=O)/C=C/CN(C)C)C3)c12 ?
A: 0.002 µM

Q: // same read-out, input: C=CC(=O)N1CCCC[C@@H](n2c(NC(=O)c3ccnc(C)c3)nc3cc(CN4CCCC4)cc(C)c32)C1
A: < 0.001 µM

Q: Similarly, Cc1cccc2nc(NC(=O)c3cccc(F)c3F)n(C3CCCCN(C(=O)/C=C/CN(C)C)C3)c12 (stereo not drawn) ?
A: 0.012 µM
